study system: human androgen receptor (Homo sapiens, UniProt P10275)
Construct: expressed in transfected cells; host or cells: HEK293
Sequence (P10275 1-920): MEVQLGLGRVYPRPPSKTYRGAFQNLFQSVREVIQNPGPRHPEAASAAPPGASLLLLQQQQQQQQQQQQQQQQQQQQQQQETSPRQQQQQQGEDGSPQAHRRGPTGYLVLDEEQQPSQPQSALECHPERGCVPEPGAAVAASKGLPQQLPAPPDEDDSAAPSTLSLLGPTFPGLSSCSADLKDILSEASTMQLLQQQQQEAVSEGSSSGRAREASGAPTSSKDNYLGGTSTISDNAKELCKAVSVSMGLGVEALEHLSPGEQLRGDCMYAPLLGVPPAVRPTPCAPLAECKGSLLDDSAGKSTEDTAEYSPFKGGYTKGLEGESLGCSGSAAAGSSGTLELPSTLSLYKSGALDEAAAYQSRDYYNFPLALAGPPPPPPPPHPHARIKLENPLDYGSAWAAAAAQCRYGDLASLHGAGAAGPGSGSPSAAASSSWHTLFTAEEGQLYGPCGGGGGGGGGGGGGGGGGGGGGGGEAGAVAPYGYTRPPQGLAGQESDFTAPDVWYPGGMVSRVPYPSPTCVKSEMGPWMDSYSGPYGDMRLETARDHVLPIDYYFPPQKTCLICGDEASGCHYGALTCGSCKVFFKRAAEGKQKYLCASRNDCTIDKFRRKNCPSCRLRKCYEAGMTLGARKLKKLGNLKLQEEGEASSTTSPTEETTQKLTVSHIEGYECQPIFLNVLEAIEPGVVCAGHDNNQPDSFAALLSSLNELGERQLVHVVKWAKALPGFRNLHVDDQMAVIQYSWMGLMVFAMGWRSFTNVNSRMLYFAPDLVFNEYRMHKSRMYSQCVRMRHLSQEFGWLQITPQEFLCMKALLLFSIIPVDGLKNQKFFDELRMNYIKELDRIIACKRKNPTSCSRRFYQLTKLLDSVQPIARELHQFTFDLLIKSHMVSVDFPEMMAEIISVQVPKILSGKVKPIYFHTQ
run description: Reporter assay of an androgen receptor responsive sequence (luciferase, transiently transfected HEK293 cells)
Assay type: cell-based
experimental setup: 24 hours incubation, relative to activity of 100 nM DHT, read-out: AR transcriptive activity (pEC50) (converted)
Threshold check on EC50: strictly below 500 nM is class 1; on or above 500 nM is class 0.

# compound, study system, label value
records = [
    ("Cc1sc(N(CCC2CCCCC2)Cc2ccc(OC(F)(F)F)cc2)nc1C(=O)NS(=O)(=O)C(F)(F)F [Compound 724]", "human androgen receptor (Homo sapiens, UniProt P10275)", "class 0"),
    ("Cc1sc(N(CCc2cccs2)c2ccc(C#N)cc2)nc1C(=O)NS(C)(=O)=O [Compound 131]", "human androgen receptor (Homo sapiens, UniProt P10275)", "class 0"),
    ("Cc1sc(N(Cc2csc(C(F)(F)F)n2)c2ccc(C#N)cc2)nc1C(=O)NS(C)(=O)=O [Compound 2]", "human androgen receptor (Homo sapiens, UniProt P10275)", "class 1"),
    ("CCc1oc(N(Cc2ccc(Br)c(Cl)c2)c2ccc(C#N)cc2)nc1C(=O)NS(C)(=O)=O [Compound 650]", "human androgen receptor (Homo sapiens, UniProt P10275)", "class 1"),
    ("Cc1sc(N(Cc2cnc(C3CC3)s2)c2ccc(C#N)cc2)nc1C(=O)NS(C)(=O)=O [Compound 466]", "human androgen receptor (Homo sapiens, UniProt P10275)", "class 1"),
    ("Cc1sc(N(CCc2ccc(C(F)(F)F)cc2)Cc2ccccc2)nc1C(=O)NS(C)(=O)=O [Compound 333]", "human androgen receptor (Homo sapiens, UniProt P10275)", "class 1"),
    ("Cc1sc(N(Cc2cccc(C#N)c2)c2ccc(C#N)cc2)nc1C(=O)NS(C)(=O)=O [Compound 9]", "human androgen receptor (Homo sapiens, UniProt P10275)", "class 1"),
    ("Cc1sc(N(CCc2ccc(Cl)cc2)Cc2ccc(Cl)cc2)nc1C(=O)NS(=O)(=O)C(F)(F)F [Compound 696]", "human androgen receptor (Homo sapiens, UniProt P10275)", "class 0"),
    ("Cc1sc(N(Cc2ccc(-c3ccc(F)cc3)cn2)c2ccc(C#N)cc2)nc1C(=O)NS(C)(=O)=O [Compound 595]", "human androgen receptor (Homo sapiens, UniProt P10275)", "class 0"),
    ("Cc1nc(CN(CCc2ccc(Cl)cc2)c2nc(C(=O)NS(C)(=O)=O)c(C)s2)cs1 [Compound 504]", "human androgen receptor (Homo sapiens, UniProt P10275)", "class 0"),
]
